assayed_system: human CYP11B1 (Homo sapiens, UniProt P15538)
Construct: expressed in transfected cells
Sequence (P15538 25-503): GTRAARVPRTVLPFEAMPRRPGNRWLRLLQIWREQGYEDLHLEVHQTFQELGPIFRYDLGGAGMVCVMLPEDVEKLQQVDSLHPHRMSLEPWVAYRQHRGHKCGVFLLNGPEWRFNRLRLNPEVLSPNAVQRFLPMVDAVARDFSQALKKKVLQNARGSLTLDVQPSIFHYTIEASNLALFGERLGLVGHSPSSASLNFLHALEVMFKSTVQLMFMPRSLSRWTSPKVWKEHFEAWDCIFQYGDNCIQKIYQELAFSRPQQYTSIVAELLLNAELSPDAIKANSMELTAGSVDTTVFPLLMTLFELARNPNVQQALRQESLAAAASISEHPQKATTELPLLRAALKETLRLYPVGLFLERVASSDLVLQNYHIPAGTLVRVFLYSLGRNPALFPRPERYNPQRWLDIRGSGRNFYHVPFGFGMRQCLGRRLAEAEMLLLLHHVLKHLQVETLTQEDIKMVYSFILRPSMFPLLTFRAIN
method: G-402 cellular enzyme assay, human CYP11B1 (cortisol release, HTRF)
Format: cell-based
condition: G-402 cells expressing human CYP11B1; 1 μM Deoxycortisol
Source text: Herein we identified the use of the G-402 cell line as a host cell to ectopically express (transiently or stably) enzymes of the CYP11 family. […] Importantly the identified cell line G-402 expresses co-factors (adrenodoxin and adrenodoxin reductase) important for the activity of the CYP11 family and no relevant enzyme activity of the CYP11 family (in comparison to H295R cells) was detected in these cells. […]
pEC50: −log10 of the molar value. Counter-ions that a name gives are not always drawn.
recorded_metric: pEC50

CN1C(=O)CCc2cc(-c3cncc(OC4CCN(C(=O)OC(C)(C)C)CC4)c3)ccc21 :: 7.62
CN(Cc1cncc(-c2cc3c4c(c2)CCN4C(=O)CC3)c1)C(=O)c1ncccc1Cl :: 6.84
CCS(=O)(=O)N[C@H]1CC[C@H](Oc2cncc(-c3ccc4c(c3)CCC(=O)N4C)c2)CC1 :: 7.16
CN1C(=O)CCc2cc(-c3cncc(CN4CCCC4=O)c3)ccc21 :: 6.12
CN1C(=O)CCc2cc(-c3cncc(NCc4ccccc4)n3)c(F)cc21 :: 6.57
Cc1cnc(C(=O)NCc2cncc(-c3ccc4c(c3)CCC(=O)N4C)c2)cn1 :: 6.86
CN1C(=O)CCc2cc(-c3cncc(CN)c3Cl)ccc21 [Example 218, hydrochloride] :: 5.92
CN1C(=O)CCc2cc(-c3cncc(CNC(=O)c4nc(Cl)ccc4Cl)c3)ccc21 :: 7.09
CCS(=O)(=O)N1CC(Oc2cncc(-c3ccc4c(c3)CCC(=O)N4C)c2)C1 :: 6.16
CN1C(=O)CCc2cc(-c3cncc(NCCO)c3)ccc21 :: 6.46
CN1C(=O)CCc2cc(-c3cncc(OCCNC(=O)OC(C)(C)C)c3)ccc21 :: 6.92
CCS(=O)(=O)N1CC[C@H](Oc2cncc(-c3ccc4c(c3)CCC(=O)N4C)c2)C1 :: 6.68
Cc1cccnc1C(=O)N(C)Cc1cncc(-c2ccc3c(c2)CCC(=O)N3C)c1 :: 7.55
